System: Escherichia coli TOP10;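 also: peptides expressed intracellularly from a pBAD plasmid library in pooled LB shake-flask culture, induced with 0.3% L-arabinose, DNA abundance read by NGS, three biological replicates, DESeq2 with apeglm shrinkage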
Protocol summary: shrunken log2 fold change of peptide-encoding DNA abundance (4.5 h post-induction vs induction); higher = less antimicrobial activity (less host growth inhibition)
Experimental parameters: time post-induction: 4.5 h; library: site-saturation at positions 5, 18, 19, 20
Quantity kind: shrunken log2 fold change
Keep the answer to the number alone.

Prompt: Give measured shrunken log2 fold change for "RRIRHRPPRLPRPRPRPRQVPRP" (Escherichia coli TOP10).
Completion: -0.108

Prompt: Give measured shrunken log2 fold change for "RRIRSRPPRLPRPRPRPWTSPRP" (Escherichia coli TOP10).
Completion: 0.0101

Prompt: Give measured shrunken log2 fold change for "RRIRERPPRLPRPRPRPYCYPRP" (Escherichia coli TOP10).
Completion: -0.979

Prompt: Give measured shrunken log2 fold change for "RRIRRRPPRLPRPRPRPVHFPRP" (Escherichia coli TOP10).
Completion: -0.278

Prompt: Give measured shrunken log2 fold change for "RRIRLRPPRLPRPRPRPETLPRP" (Escherichia coli TOP10).
Completion: 0.228

Prompt: Give measured shrunken log2 fold change for "RRIRTRPPRLPRPRPRPFDQPRP" (Escherichia coli TOP10).
Completion: 0.176

Prompt: Give measured shrunken log2 fold change for "RRIRFRPPRLPRPRPRPHEPPRP" (Escherichia coli TOP10).
Completion: -0.164
